Where these numbers come from: ChEMBL document CHEMBL1123813

Species: Rattus norvegicus
Assay: Inhibition of carnitine-dependent oxidation of [1-14C]palmitate to 14CO2 in rat liver mitochondria was measured in vitro at 2*10e-2 mM concentration
Format: functional
Kindly return Criterion met if reported inhibition is no lower than 90%; return Criterion not met if it is lower.

C[N+](C)(C)CC(N)CC(N)=O (stereo unspecified) :: Criterion not met
CCOC(=O)CC(N)C[N+](C)(C)C (stereo unspecified) :: Criterion not met
COC(=O)CC(N)C[N+](C)(C)C (stereo unspecified) :: Criterion not met
CCCCCCCCCCCCCCCC(=O)NC(CC(=O)[O-])C[N+](C)(C)C (stereo unspecified) :: Criterion met
CCCCCCCCCCCCCC(=O)NC(CC(=O)[O-])C[N+](C)(C)C (stereo unspecified) :: Criterion met
